Target: Human M4 (Homo sapiens)
Construct: expressed in transfected cells
Sequence (P08173 1-479): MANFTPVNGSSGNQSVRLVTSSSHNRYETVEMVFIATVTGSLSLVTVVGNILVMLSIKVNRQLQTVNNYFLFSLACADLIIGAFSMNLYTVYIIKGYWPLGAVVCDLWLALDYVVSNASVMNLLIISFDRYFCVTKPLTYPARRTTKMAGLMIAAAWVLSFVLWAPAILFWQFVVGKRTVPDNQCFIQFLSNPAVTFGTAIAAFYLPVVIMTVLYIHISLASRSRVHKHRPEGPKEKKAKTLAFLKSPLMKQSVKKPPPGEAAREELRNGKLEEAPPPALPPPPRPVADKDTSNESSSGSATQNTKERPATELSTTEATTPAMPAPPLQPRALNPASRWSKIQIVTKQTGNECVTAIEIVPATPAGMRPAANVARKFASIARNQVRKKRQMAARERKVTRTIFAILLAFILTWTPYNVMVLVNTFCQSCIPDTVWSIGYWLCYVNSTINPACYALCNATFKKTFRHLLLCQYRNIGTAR
Assay: mAChR M4 cell-based functional assay (calcium flux, potentiation of EC20 acetylcholine response), hM4-Gqi5 CHO-K1 cells
Details: CHO-K1
So I've got a bunch of compounds here, and I need their Emax values.
Answers are plain numbers, in %.

Please review the entries below; each comes with its answer.
Chemical Structure	Emax / %
Cc1c(N2CCc3ncc(-c4ccnn4C(C)C)cc3C2)nn2cnnc2c1C	62
Cc1c(N2CCc3ncc(NC(=O)C4COC4)cc3C2)nn2cnnc2c1C	68
Cc1ccc2c(n1)CCN(c1nn3cnnc3c(C)c1C)C2	103
Cc1c(N2CCc3ncc(C#N)cc3C2)nn2cnnc2c1C	69

Hi! Can you tell me Emax for each of these compounds?
1. Cc1cc2nncn2nc1N1CCc2ncccc2C1
2. Cc1c(N2CCc3ncc(Nc4ccccc4F)cc3C2)nn2cnnc2c1C

1: 93; 2: 94

Hi! Can you tell me Emax for each of these compounds?
1. Cc1c(N2CCc3ncccc3C2)nn2cnnc2c1C
2. Cc1cnc2c(c1)CN(c1nn3cnnc3c(C)c1C)CC2

1: 97; 2: 95

====

Target: Human M4 (Homo sapiens, UniProt P08173)
Construct: expressed in transfected cells
Test: mAChR M4 cell-based functional assay (calcium flux, potentiation of EC20 acetylcholine response), hM4-Gqi5 CHO-K1 cells
Details: hM4-Gqi5 CHO-K1 cells, calcium flux, PAM of EC20 acetylcholine; read-out: Human M4 EC50
So I've got a bunch of compounds here, and I need their EC50 values.
One number for each entry, in nM.

Please review the entries below; each comes with its answer.
Compound	EC50, nM
Cc1cc2nccn2nc1N1CCc2ncc(-c3cn(C)nc3C)cc2C1 [Compound 108]	399
Cc1c(N2CCc3ncc(Nc4cc(F)cc(F)c4F)cc3C2)nn2c(C(F)(F)F)nnc2c1C [Compound 91]	1790
Cc1c(N2CCc3ncc(-c4cncc(C#N)c4)cc3C2)nn2cnnc2c1C [Compound 40]	716
Cc1ncc(-c2cnc3c(c2)CN(c2nn4cnnc4c(C)c2C)CC3)s1 [Compound 60]	180
Cc1c(N2CCc3ncc(Nc4ccccc4Cl)cc3C2)nn2cnnc2c1C [Compound 50]	211

Hi! Can you tell me EC50 for each of these compounds?
1. Cc1c(N2CCc3ncc(C#N)cc3C2)nn2cnnc2c1C [Compound 3]
2. Cc1c(N2CCc3ncc(-c4cnn(CC(F)(F)F)c4)cc3C2)nn2cnnc2c1C [Compound 98]
3. Cc1c(N2CCc3ncc(-c4cnn(CC(C)C)c4)cc3C2)nn2cnnc2c1C [Compound 146]
4. Cc1c(N2CCc3ncc(C(=O)N4CC(C)(C)C4)cc3C2)nn2cnnc2c1C [Compound 123]

4510
332
227
4770
